The reported measurements were obtained from the Human Domainome abundance scans (Beltran et al. 2025).

B1: POU domain, class 3, transcription factor 3, residues 408 to 463; numbered along this chain, P20264 (parent)
chain: KKRTSIEVSVKGALESHFLKCPKPSAQEITNLADSLQLEKEVVRVWFCNRRQKEKR

# Variants of: B1
# measurementDescription: abundance fitness (aPCA) (normalised: wild type 0, dead -1); higher = more abundant; growth selection in yeast, the domain comes from the species named
# conditionsUsed: Homo sapiens
Criterion: abundance fitness meeting or surpassing -0.2. Met: 1 (yes). Not met: 0 (no).

As a guide, the following entries are already answered.
INSERT INTO assay_data (alteration, classlabel) VALUES
  ('V42L', '1 (yes)'),
  ('L36N', '0 (no)'),
  ('V42I', '1 (yes)'),
  ('I6T', '1 (yes)'),
  ('S35M', '1 (yes)');

Task item: Threshold query (abundance fitness >= -0.2) on C48R
Reply: 1 (yes)

Task item: Now this one: E15S
Reply: 0 (no)

Task item: Now this one: F18I
Reply: 0 (no)

Task item: Now this one: L32Q
Reply: 0 (no)

Task item: Now this one: V42D
Reply: 1 (yes)

Task item: Now this one: E54L
Reply: 0 (no)

Task item: Now this one: S16E
Reply: 1 (yes)

Task item: Now this one: E28F
Reply: 0 (no)

Task item: Now this one: F47S
Reply: 0 (no)
